assay: Half life in cynomolgus monkey at 10 mg/kg, po in presence of ketoconazole; assay type: ADME, organism-based, Macaca fascicularis; design: dose 10 mg/kg, route oral; conditions: in vivo

Compound: Cc1nn(C[C@H](F)CN2C3CCC2CC(OCc2cccc(F)c2)C3)c(=O)n1C (stereo partly specified)
half-life [h]: 2.73

###

experiment: Tmax in Sprague-Dawley rat at 3 mg/kg, po; format: ADME, organism-based; set-up: dose 3 mg/kg, route oral; settings: in vivo

Compound: Cc1nn(C[C@H](F)CN2C3CCC2CC(OCc2cccc(F)c2)C3)c(=O)n1C (stereo partly specified)
Readout Units: min
Tmax: 15

###

assay: Drug metabolism in cynomolgus monkey liver microsomes after 15 mins by Michaelis-Menten plot analysis; assay type: ADME, Macaca fascicularis; details: liver microsomes

Compound: Cc1nn(C[C@H](F)CN2C3CCC2CC(OCc2cccc(F)c2)C3)c(=O)n1C (stereo partly specified)
Km at 0.25 h (µM): 42.4

###

experiment: Tmax in cynomolgus monkey at 10 mg/kg, po; type: ADME, organism-based, Macaca fascicularis; parameters: dose 10 mg/kg, route oral; conditions: in vivo
Measure: Tmax (h)

Compound: Cc1nn(C[C@H](F)CN2C3CCC2CC(OCc2cccc(F)c2)C3)c(=O)n1C (stereo partly specified)
Observed Measurement: 1

###

test: Fraction unbound in Sprague-Dawley rat liver microsomes at 0.25 uM by equilibrium dialysis technique; format: ADME

Compound: Cc1nn(C[C@H](F)CN2C3CCC2CC(OCc2cccc(F)c2)C3)c(=O)n1C (stereo partly specified)
fraction unbound at 0.25 µM: 1

###

assay: AUC in wild-type mouse at 3 mg/kg, po; assay type: ADME, organism-based; design: dose 3 mg/kg, route oral; conditions: plasma
Measure: AUC (ng·h/mL)

Compound: Cc1nn(C[C@H](F)CN2C3CCC2CC(OCc2cccc(F)c2)C3)c(=O)n1C (stereo partly specified)
Readout Units: ng·h/mL
Observed Measurement: 230

###

test: Half life in Sprague-Dawley rat at 30 mg/kg, po; assay type: ADME, organism-based; parameters: dose 30 mg/kg, route oral; settings: in vivo

Compound: Cc1nn(C[C@H](F)CN2C3CCC2CC(OCc2cccc(F)c2)C3)c(=O)n1C (stereo partly specified)
half-life: 1.36 h

###

assay: Tmax in cynomolgus monkey at 3 mg/kg, po; format: ADME, organism-based, Macaca fascicularis; design: dose 3 mg/kg, route oral; conditions: in vivo

Compound: Cc1nn(C[C@H](F)CN2C3CCC2CC(OCc2cccc(F)c2)C3)c(=O)n1C (stereo partly specified)
Tmax: 1 h

###

assay: Tmax in MDR1A/1B knock-out mouse at 3 mg/kg, po; format: ADME, organism-based; set-up: dose 3 mg/kg, route oral; details: in vivo
Measure: Tmax (min)

Compound: Cc1nn(C[C@H](F)CN2C3CCC2CC(OCc2cccc(F)c2)C3)c(=O)n1C (stereo partly specified)
Measure: Tmax
Readout Units: min
Observed Measurement: 15

###

target: MDR1A (ABCB1, P-glycoprotein) (Mus musculus, UniProt P21447); test: Activity of mouse MDR1A expressed in pig LLC-PK1 cells assessed as permeability from apical to basolateral side at 1 uM after 2 hrs; assay type: ADME, cell-based; details: read-out: permeability
Sequence (P21447 whole entry): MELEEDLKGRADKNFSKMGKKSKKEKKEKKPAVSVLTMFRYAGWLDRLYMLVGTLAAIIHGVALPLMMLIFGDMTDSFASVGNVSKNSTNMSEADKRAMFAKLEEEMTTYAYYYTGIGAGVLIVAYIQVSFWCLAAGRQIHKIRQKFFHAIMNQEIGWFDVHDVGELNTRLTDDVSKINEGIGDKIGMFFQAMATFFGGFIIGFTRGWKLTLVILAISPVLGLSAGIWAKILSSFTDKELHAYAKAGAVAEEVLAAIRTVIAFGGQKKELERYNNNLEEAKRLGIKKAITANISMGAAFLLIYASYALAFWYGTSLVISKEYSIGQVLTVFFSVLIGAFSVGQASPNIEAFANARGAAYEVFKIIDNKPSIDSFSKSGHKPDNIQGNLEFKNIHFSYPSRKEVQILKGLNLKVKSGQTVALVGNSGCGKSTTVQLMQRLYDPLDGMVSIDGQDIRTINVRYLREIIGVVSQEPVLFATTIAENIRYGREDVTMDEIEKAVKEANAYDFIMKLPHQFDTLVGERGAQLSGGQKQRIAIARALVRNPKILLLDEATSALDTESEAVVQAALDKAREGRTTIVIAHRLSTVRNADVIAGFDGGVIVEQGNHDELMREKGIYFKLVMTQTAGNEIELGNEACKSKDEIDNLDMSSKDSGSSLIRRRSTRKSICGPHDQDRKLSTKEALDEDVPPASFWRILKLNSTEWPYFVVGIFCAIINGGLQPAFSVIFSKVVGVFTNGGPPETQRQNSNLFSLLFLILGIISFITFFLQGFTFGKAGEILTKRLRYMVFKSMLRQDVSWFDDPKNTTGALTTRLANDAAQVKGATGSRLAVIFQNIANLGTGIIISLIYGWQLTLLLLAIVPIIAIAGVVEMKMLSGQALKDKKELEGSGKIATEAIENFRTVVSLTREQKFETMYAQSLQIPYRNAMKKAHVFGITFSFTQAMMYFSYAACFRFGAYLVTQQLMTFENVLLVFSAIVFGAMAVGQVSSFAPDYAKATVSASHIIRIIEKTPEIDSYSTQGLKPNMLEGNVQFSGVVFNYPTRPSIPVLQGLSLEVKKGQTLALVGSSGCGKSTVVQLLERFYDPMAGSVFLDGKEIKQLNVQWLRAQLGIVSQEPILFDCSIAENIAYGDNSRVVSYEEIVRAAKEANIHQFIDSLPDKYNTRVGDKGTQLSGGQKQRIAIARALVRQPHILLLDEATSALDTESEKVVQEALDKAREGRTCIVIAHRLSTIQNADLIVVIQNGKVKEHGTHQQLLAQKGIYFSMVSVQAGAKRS
Measure: Papp A→B at 2 h, 1 µM (×10⁻⁶ cm/s)

Molecule: Cc1nn(C[C@H](F)CN2C3CCC2CC(OCc2cccc(F)c2)C3)c(=O)n1C (stereo partly specified)
Observed Measurement: 9.67

###

experiment: Ratio of drug level in blood to plasma in beagle dog at 0.25 uM after 10 mins by equilibrium dialysis technique; format: ADME, Canis lupus familiaris; details: blood and plasma

Molecule: Cc1nn(C[C@H](F)CN2C3CCC2CC(OCc2cccc(F)c2)C3)c(=O)n1C (stereo partly specified)
blood plasma ratio at 10 min, 0.25 µM: 0.86

###

assay: Tmax in beagle dog at 3 mg/kg, po; assay type: ADME, organism-based, Canis lupus familiaris; parameters: dose 3 mg/kg, route oral; conditions: in vivo

Compound: Cc1nn(C[C@H](F)CN2C3CCC2CC(OCc2cccc(F)c2)C3)c(=O)n1C (stereo partly specified)
Tmax, min: 30

###

test: AUC in cynomolgus monkey at 1 mg/kg, iv in presence of ketoconazole; type: ADME, organism-based, Macaca fascicularis; parameters: dose 1 mg/kg, route intravenous; conditions: plasma
Measure: AUC (µg·h/mL)

Compound: Cc1nn(C[C@H](F)CN2C3CCC2CC(OCc2cccc(F)c2)C3)c(=O)n1C (stereo partly specified)
Measure: AUC
Readout Units: µg·h/mL
Observed Measurement: 0.82

###

test: Tmax in cynomolgus monkey at 3 mg/kg, po in presence of ketoconazole; assay type: ADME, organism-based, Macaca fascicularis; set-up: dose 3 mg/kg, route oral; settings: in vivo

Compound: Cc1nn(C[C@H](F)CN2C3CCC2CC(OCc2cccc(F)c2)C3)c(=O)n1C (stereo partly specified)
Readout Units: h
Tmax: 1

###

experiment: Clearance in cynomolgus monkey at 1 mg/kg, iv in presence of ketoconazole; assay type: ADME, organism-based, Macaca fascicularis; design: dose 1 mg/kg, route intravenous; details: in vivo

Compound: Cc1nn(C[C@H](F)CN2C3CCC2CC(OCc2cccc(F)c2)C3)c(=O)n1C (stereo partly specified)
clearance: 20.3 mL/min/kg

###

assay: Oral bioavailability in beagle dog at 10 mg/kg; assay type: ADME, organism-based, Canis lupus familiaris; conditions: in vivo

Compound: Cc1nn(C[C@H](F)CN2C3CCC2CC(OCc2cccc(F)c2)C3)c(=O)n1C (stereo partly specified)
Readout Units: %
bioavailability: 43.7

###

assay: Clearance in beagle dog at 1 mg/kg, iv; type: ADME, organism-based, Canis lupus familiaris; parameters: dose 1 mg/kg, route intravenous; conditions: in vivo
Measure: clearance

Compound: Cc1nn(C[C@H](F)CN2C3CCC2CC(OCc2cccc(F)c2)C3)c(=O)n1C (stereo partly specified)
Measure: clearance
Observed Measurement: 1.7 L/h/kg

###

experiment: Oral bioavailability in cynomolgus monkey at 3 mg/kg; type: ADME, organism-based, Macaca fascicularis; conditions: in vivo

Compound: Cc1nn(C[C@H](F)CN2C3CCC2CC(OCc2cccc(F)c2)C3)c(=O)n1C (stereo partly specified)
bioavailability: 7.8%

###

assay: Oral bioavailability in Sprague-Dawley rat at 3 mg/kg; assay type: ADME, organism-based; conditions: in vivo

Molecule: Cc1nn(C[C@H](F)CN2C3CCC2CC(OCc2cccc(F)c2)C3)c(=O)n1C (stereo partly specified)
bioavailability: 2.6%

###

assay: Cmax in Sprague-Dawley rat at 30 mg/kg, po; assay type: ADME, organism-based; set-up: dose 30 mg/kg, route oral; conditions: in vivo

Molecule: Cc1nn(C[C@H](F)CN2C3CCC2CC(OCc2cccc(F)c2)C3)c(=O)n1C (stereo partly specified)
Cmax [ng/mL]: 1360

###

test: AUC in Sprague-Dawley rat at 3 mg/kg, po; format: ADME, organism-based; set-up: dose 3 mg/kg, route oral; settings: plasma

Molecule: Cc1nn(C[C@H](F)CN2C3CCC2CC(OCc2cccc(F)c2)C3)c(=O)n1C (stereo partly specified)
AUC (ng·h/mL): 20

###

test: Drug metabolism in Sprague-Dawley rat liver microsomes after 7 mins by Michaelis-Menten plot analysis; type: ADME; conditions: Sprague-Dawley, liver microsomes

Compound: Cc1nn(C[C@H](F)CN2C3CCC2CC(OCc2cccc(F)c2)C3)c(=O)n1C (stereo partly specified)
Km at 7 min: 7.23 µM

###

assay: AUC in beagle dog at 10 mg/kg, po; format: ADME, organism-based, Canis lupus familiaris; set-up: dose 10 mg/kg, route oral; conditions: plasma

Compound: Cc1nn(C[C@H](F)CN2C3CCC2CC(OCc2cccc(F)c2)C3)c(=O)n1C (stereo partly specified)
Readout Units: ng·h/mL
AUC: 2730

###

assay: Volume of distribution at steady state in Sprague-Dawley rat at 1 mg/kg, iv; type: ADME, organism-based; set-up: dose 1 mg/kg, route intravenous; conditions: in vivo, read-out: Vdss
Measure: Vd

Compound: Cc1nn(C[C@H](F)CN2C3CCC2CC(OCc2cccc(F)c2)C3)c(=O)n1C (stereo partly specified)
Observed Measurement: 2.54 L/kg

###

assay: Fraction unbound in cynomolgus monkey liver microsomes at 0.25 uM by equilibrium dialysis technique; type: ADME, Macaca fascicularis

Compound: Cc1nn(C[C@H](F)CN2C3CCC2CC(OCc2cccc(F)c2)C3)c(=O)n1C (stereo partly specified)
fraction unbound at 0.25 µM: 1

###

molecular target: MDR1A (ABCB1, P-glycoprotein) (Mus musculus, UniProt P21447); assay: Activity of mouse MDR1A expressed in pig LLC-PK1 cells assessed as permeability from basolateral to apical side at 1 uM after 2 hrs; assay type: ADME, cell-based; conditions: read-out: permeability

Molecule: Cc1nn(C[C@H](F)CN2C3CCC2CC(OCc2cccc(F)c2)C3)c(=O)n1C (stereo partly specified)
Papp B→A at 2 h, 1 µM: 30.4 ×10⁻⁶ cm/s
